From: the supplement of paper PMC10681739

assay target: ETS1 (UniProt P14921)
Sequence: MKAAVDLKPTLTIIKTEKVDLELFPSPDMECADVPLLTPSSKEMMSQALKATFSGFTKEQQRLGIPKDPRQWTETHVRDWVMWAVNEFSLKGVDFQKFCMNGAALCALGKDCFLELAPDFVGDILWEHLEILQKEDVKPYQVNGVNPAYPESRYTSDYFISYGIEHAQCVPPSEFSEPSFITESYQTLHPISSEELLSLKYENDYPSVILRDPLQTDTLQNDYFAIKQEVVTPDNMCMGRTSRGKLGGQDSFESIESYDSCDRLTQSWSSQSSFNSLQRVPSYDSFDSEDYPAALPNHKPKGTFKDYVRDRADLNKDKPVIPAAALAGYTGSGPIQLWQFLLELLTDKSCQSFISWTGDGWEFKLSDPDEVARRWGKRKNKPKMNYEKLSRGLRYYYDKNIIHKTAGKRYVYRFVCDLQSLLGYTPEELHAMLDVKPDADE
procedure text: ETS1 binding intensity (PBM fluorescence) in presence of RUNX1, normalised to ETS1-only experiment (arbitrary fluorescence units); higher = stronger binding
condition set: ETS1 concentration 1 nM; RUNX1 concentration 25 nM
Each entry below carries its reported ETS1 binding intensity.
Quick one: just the number, no unit, thanks!

Worked examples follow.
# input Request body: readout ETS1 binding intensity, system ETS1 (UniProt P14921), query AAGTTCTTCCGGGTCTGCAGTCTGTGGTGTGTTTGC . Return the value.
# output 422

# input Request body: readout ETS1 binding intensity, system ETS1 (UniProt P14921), query GGGGGAGTTTTCGGAAGCGCTAACCGCGTTGGGGCC . Return the value.
# output 874

# input Request body: readout ETS1 binding intensity, system ETS1 (UniProt P14921), query CCCAAGCTACGGAAGTTAAACCTCAAACATGAAATC . Return the value.
# output 1420

# input Request body: readout ETS1 binding intensity, system ETS1 (UniProt P14921), query CAGATCTGAAAGGGAAGTGGTTTCAAGAGGGTTCTT . Return the value.
# output 1130

# input Request body: readout ETS1 binding intensity, system ETS1 (UniProt P14921), query AGGTACCAGGCCCGGAAACCACGGAAAGGGGAACTT . Return the value.
# output 5500

# input Request body: readout ETS1 binding intensity, system ETS1 (UniProt P14921), query TGGCGGGAGAACTTCCCCCTGTGCGGTCGCGACGTG . Return the value.
# output 533

# input Request body: readout ETS1 binding intensity, system ETS1 (UniProt P14921), query ATAGAAACTACAGGAAATACTGTGGTCAGGTTTTGA . Return the value.
# output 9500

# input Request body: readout ETS1 binding intensity, system ETS1 (UniProt P14921), query GCACCCGGCACTACTTCCCGACCCGCATCCCCCGCC . Return the value.
# output 683

Please turn your attention to the following entry.
# input Request body: readout ETS1 binding intensity, system ETS1 (UniProt P14921), query CAGTGCCAGCCGGAACTTGTGGTTCGGACCGTGGGT . Return the value.
# output 2100

====

assay target: ETS1 (UniProt P14921)
Sequence: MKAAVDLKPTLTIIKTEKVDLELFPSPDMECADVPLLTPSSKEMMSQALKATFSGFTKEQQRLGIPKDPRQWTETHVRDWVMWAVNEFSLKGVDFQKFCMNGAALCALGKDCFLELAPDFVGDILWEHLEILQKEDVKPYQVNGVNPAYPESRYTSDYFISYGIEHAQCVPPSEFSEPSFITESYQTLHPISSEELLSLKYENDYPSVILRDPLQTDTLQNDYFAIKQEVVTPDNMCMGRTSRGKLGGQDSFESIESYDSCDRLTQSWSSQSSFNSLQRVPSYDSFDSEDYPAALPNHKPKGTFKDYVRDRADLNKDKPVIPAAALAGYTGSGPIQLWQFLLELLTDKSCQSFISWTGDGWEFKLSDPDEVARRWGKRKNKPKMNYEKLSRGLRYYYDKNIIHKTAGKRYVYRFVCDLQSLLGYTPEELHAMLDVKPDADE
procedure text: TF binding intensity (PBM fluorescence), negative control probe (arbitrary fluorescence units); higher = stronger binding
Each entry below carries its reported TF binding intensity.
Quick one: just the number, no unit, thanks!

# input Request body: readout TF binding intensity, system ETS1 (UniProt P14921), query TGCTCTAGAGATGTGATCGTCCTCATTTCATGAAGG (protein concentration 10 nM) . Return the value.
# output 121

# input Request body: readout TF binding intensity, system ETS1 (UniProt P14921), query GCTGGGAGACAGAGCCAGACACTGTCTCAAAAAAAA (protein concentration 10 nM) . Return the value.
# output 110

# input Request body: readout TF binding intensity, system ETS1 (UniProt P14921), query TCTCTCTGCTCTGTGAACTCTAGCTGTCTTGGCTTC (protein concentration 10 nM) . Return the value.
# output 142

# input Request body: readout TF binding intensity, system ETS1 (UniProt P14921), query AAGGTTCTGATTCCGAGTCCCCTGAGGTGGCAGTGG (protein concentration 10 nM) . Return the value.
# output 111

# input Request body: readout TF binding intensity, system ETS1 (UniProt P14921), query GCTATCTATTTTAATTAGCTAAGATTGCTATTAATA (protein concentration 10 nM) . Return the value.
# output 106

Please turn your attention to the following entry.
# input Request body: readout TF binding intensity, system ETS1 (UniProt P14921), query TGCCAGGGTGTAATTTTTCCCACTTTCACCTCCTTC (protein concentration 10 nM) . Return the value.
# output 128

====

Each entry below carries its reported ETS1 binding intensity.
assay target: ETS1 (UniProt P14921)
Sequence: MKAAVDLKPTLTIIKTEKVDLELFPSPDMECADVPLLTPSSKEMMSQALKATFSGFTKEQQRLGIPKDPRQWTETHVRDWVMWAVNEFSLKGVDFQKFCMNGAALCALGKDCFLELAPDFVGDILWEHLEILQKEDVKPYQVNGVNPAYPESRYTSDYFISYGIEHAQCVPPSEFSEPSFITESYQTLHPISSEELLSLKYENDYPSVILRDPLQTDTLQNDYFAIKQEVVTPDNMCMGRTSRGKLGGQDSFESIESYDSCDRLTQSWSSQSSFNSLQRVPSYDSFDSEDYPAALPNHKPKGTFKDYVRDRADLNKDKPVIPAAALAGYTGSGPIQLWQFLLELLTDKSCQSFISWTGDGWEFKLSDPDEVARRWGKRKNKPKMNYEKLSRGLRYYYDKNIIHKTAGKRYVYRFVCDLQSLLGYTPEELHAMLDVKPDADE
procedure text: ETS1 binding intensity (PBM fluorescence), ETS1 alone (arbitrary fluorescence units); higher = stronger binding
condition set: ETS1 concentration 1 nM; RUNX1 concentration 0 nM
Quick one: just the number, no unit, thanks!

# input Request body: readout ETS1 binding intensity, system ETS1 (UniProt P14921), query GTTGGGCTTTGAGGATGTGGGTTCTAGAAGTTTACA . Return the value.
# output 928

# input Request body: readout ETS1 binding intensity, system ETS1 (UniProt P14921), query CTGCTGGCGTTCCCGGATGTGCGGTGGCGGTGCTAC . Return the value.
# output 4900

# input Request body: readout ETS1 binding intensity, system ETS1 (UniProt P14921), query ACCTCAAGCCCAGGATGTGGTTTGGCCACTATTGAG . Return the value.
# output 1310

# input Request body: readout ETS1 binding intensity, system ETS1 (UniProt P14921), query CAACGGCGTAGCCGGAAGTCAGTGGTTTTCGCCCCA . Return the value.
# output 12100

# input Request body: readout ETS1 binding intensity, system ETS1 (UniProt P14921), query ACTAGAAGCGGAAGTAGTTGTGGGCGCCTTTGCAAC . Return the value.
# output 5720

# input Request body: readout ETS1 binding intensity, system ETS1 (UniProt P14921), query AGCTAGACTACAGGAGGAAACCACAGCCTAAACCAG . Return the value.
# output 541

***
# input Request body: readout ETS1 binding intensity, system ETS1 (UniProt P14921), query CCCTACTCAGGAGGATGTGGTTGGAGAACCCGCTGA . Return the value.
# output 815

# input Request body: readout ETS1 binding intensity, system ETS1 (UniProt P14921), query TTCAGGAAATGCAAACGGCTGCAGAGACCGCAGAGG . Return the value.
# output 499

# input Request body: readout ETS1 binding intensity, system ETS1 (UniProt P14921), query AGCCTACATCCTGCACTGCTTAACCACAGCCCGCCT . Return the value.
# output 509

# input Request body: readout ETS1 binding intensity, system ETS1 (UniProt P14921), query GAGGCCCAGGATGTGGCTGGAGGCCTGTGGTGGGAC . Return the value.
# output 630

# input Request body: readout ETS1 binding intensity, system ETS1 (UniProt P14921), query ACAGGAAGTGTCTCTATAGAAACCAAACCACAGAAA . Return the value.
# output 1270

# input Request body: readout ETS1 binding intensity, system ETS1 (UniProt P14921), query AGGCCTCGCTTCCTCTCCTGACCACACCCTGCAGCT . Return the value.
# output 446

# input Request body: readout ETS1 binding intensity, system ETS1 (UniProt P14921), query CCTCCCGGCTTCCGTTCCTTGACCACCTCCTTCTCG . Return the value.
# output 560

# input Request body: readout ETS1 binding intensity, system ETS1 (UniProt P14921), query GTCTTCCTTCCTGAGAATCTTAACCACCAGCTTGCC . Return the value.
# output 434

# input Request body: readout ETS1 binding intensity, system ETS1 (UniProt P14921), query CTGAAGAGGAAATGTATTCCTCATGTTGTGGTTGGC . Return the value.
# output 742

# input Request body: readout ETS1 binding intensity, system ETS1 (UniProt P14921), query TACATAGGCGGAAGTGGCCTGCGGGCGCCGGAGTTG . Return the value.
# output 3980

# input Request body: readout ETS1 binding intensity, system ETS1 (UniProt P14921), query AGCAACAACAAAGGAAGTGGCGGCCGCAGGGGGAGG . Return the value.
# output 1320

# input Request body: readout ETS1 binding intensity, system ETS1 (UniProt P14921), query TGGGGAACGCTGCGGATGCTGCGGTAAACCATGCGA . Return the value.
# output 643

# input Request body: readout ETS1 binding intensity, system ETS1 (UniProt P14921), query GGACCGGAAGTAGGTTTCTACCCGACCGCATTTTAC . Return the value.
# output 12100

# input Request body: readout ETS1 binding intensity, system ETS1 (UniProt P14921), query AGCTTTCCTTTTCCGGTTGCGGCGCCGCGCGTTGAT . Return the value.
# output 1800

# input Request body: readout ETS1 binding intensity, system ETS1 (UniProt P14921), query TGCCGCGGATACCCAGCCAGCGGCAGTGCGGTTAAC . Return the value.
# output 349

# input Request body: readout ETS1 binding intensity, system ETS1 (UniProt P14921), query CATGGTTGTTATTTCCTCACCACAATATGTGACATT . Return the value.
# output 386

# input Request body: readout ETS1 binding intensity, system ETS1 (UniProt P14921), query GCTCCTGGCCCGCACTTCCGACCACACACTGGGGAC . Return the value.
# output 557

# input Request body: readout ETS1 binding intensity, system ETS1 (UniProt P14921), query AATTCCCAGGAAGCACTCGGCAGCCACAAACTGATG . Return the value.
# output 539

# input Request body: readout ETS1 binding intensity, system ETS1 (UniProt P14921), query ACCATCCTGTAGTCTGTTAAGTGAGCAACCGCATTA . Return the value.
# output 447
